# Experiment notes: chemical genetic growth profiling, strain panel (AID 1159580);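 also: tested at 20 µM; growth read once vehicle control cultures reached saturation at 30 °C; lower values mean less growth of the strain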
# Experimental setup: S. cerevisiae deletion strains, growth OD, locus YER155C, strain BEM2 (second series), active compounds read low
Hit rate of the full screen: of about 5,500 compounds, about 2,000 (36%) were called active. Not shown: some 18% with an inconclusive outcome. The list shows a part of the results.
hey, just use Criterion met if measured normalized growth is less than 1, otherwise Criterion not met

For Nc1nc(/C(=C/CC(=O)O)C(=O)N[C@@H]2C(=O)N3C(C(=O)O)=CCS[C@H]23)cs1 , is the recorded normalized growth below the cut-off of 1?
Criterion not met

What do you get for CO[C@H]1[C@@H](O)[C@@H](C)O[C@H](O[C@H]2CCC3(C)C4CCC5(C)[C@@H](C6=CC(=O)OC6)CC[C@]5(O)[C@@H]4CC[C@]3(O)C2)[C@@H]1O (some centres not stated) ?
Criterion not met

What do you get for CC12CCC(=O)C=C1CCc1ccccc12 (configuration not stated) ?
Criterion met

What do you get for O=C(Oc1cccc2cccnc12)c1ccccc1 ?
Criterion met

What do you get for C/C=C/CC(C)C(O)C1C(=O)NC(CC)C(=O)N(C)CC(=O)N(C)C(CC(C)C)C(=O)NC(C(C)C)C(=O)N(C)C(CC(C)C)C(=O)NC(C)C(=O)NC(C)C(=O)N(C)C(CC(C)C)C(=O)N(C)C(CC(C)C)C(=O)N(C)C(C(C)C)C(=O)N1C (configuration not stated) ?
Criterion met

What do you get for CSc1nc(NC(C)C)nc(NC(C)C)n1 ?
Criterion met

What do you get for CCCc1nc(C)c2c(=O)[nH]c(-c3cc(S(=O)(=O)N4CCN(CC)CC4)ccc3OCC)nn12 ?
Criterion met

What do you get for COC(=O)CC1C(C)(C)C(OC(C)=O)[C@@H]2[C@@H](OC(C)=O)[C@]34O[C@@]2(O)[C@]1(C)C3CC[C@]1(C)C4=CC(=O)O[C@H]1c1ccoc1 (some centres not stated) ?
Criterion not met

What do you get for CC[C@@]1(O)C(=O)OCc2c1cc1n(c2=O)Cc2cc3ccccc3nc2-1 ?
Criterion met

What do you get for O=c1c(O)cc([C@H]2Oc3cc(O)cc(O)c3C[C@H]2O)cc2c([C@H]3Oc4cc(O)cc(O)c4C[C@H]3O)cc(O)c(O)c12 ?
Criterion not met

What do you get for O=C(CCCN1CCC2(CC1)C(=O)NCN2c1ccccc1)c1ccc(F)cc1 ?
Criterion met

meta.source: PubChem BioAssay AID1159580
